Test: qHTS of pediatric cancer cell lines to identify multiple opportunities for drug repurposing: Primary screen for NB-EBc1 cells (AID 1347095); note: potency is the fitted concentration of half-maximal effect
Conditions: NB-EBc1 neuroblastoma viability, CellTiter-Glo luminescence, 48 h; series mostly up to 46 µM
Records with an inconclusive call do not appear. Activity calls are given as the source filed them. Calls come from the whole dose curve; as a rule, active = well fitted cell-killing curve with a large enough effect; inconclusive = small, poorly fitted or top-dose-only effect; inactive = no such curve, though single readings can be large or run the other way.
assay endpoint: Potency

Here's what some known entries look like.
| compound | Potency |
| --- | --- |
| COc1ccccc1N1CCN(CCCNc2cc(=O)n(C)c(=O)n2C)CC1 | inactive |
| CCn1c(C(=O)N(C2CC2)C2CC2)cc2c3c(ncn3C)c(Nc3cc(C)n(C)n3)nc21 | inactive |
| CN(C)CCC(c1ccccc1)c1ccccn1 (stereo not given) | inactive |
| O=c1cc(N2CCOCC2)oc2c(-c3cccc4c3sc3ccccc34)cccc12 | 8.33 µM (active) |
| CC(=O)CCCCn1c(=O)c2c(ncn2C)n(C)c1=O | inactive |
| COCCOC(=O)C1=C(C)NC2=C(C(=O)CC(c3ccccc3OC)C2)C1c1cccc(O)c1 (stereo not given) | 18.7 µM (active) |
| C[C@]12CCC3c4ccc(O)cc4CCC3C1CCC2=O (stereo not given in full) | inactive |
| CO[C@H]1C[C@@H]2CC[C@@H](C)[C@@](O)(O2)C(=O)C(=O)N2CCCC[C@@H]2C(=O)O[C@H]([C@H](C)C[C@@H]2CC[C@H](OC(=O)C(C)(CO)CO)[C@H](OC)C2)CC(=O)[C@H](C)C=C(C)[C@@H](O)[C@@H](OC)C(=O)[C@H](C)C[C@H](C)C=CC=CC=C1C | 9.35 µM (active) |
| COc1cc2nc(-c3ccc(N4CCN(C)CC4)cc3)nc(NCCN3CCOCC3)c2cc1OC | 1.48 µM (active) |

Please find the next compound below.
Entry O=C1NCC2(CCN(CCc3ccccc3)CC2)O1 — recorded Potency = inactive

====

Kindly state growth, % of control for each of the entries shown.
Experiment: qHTS profiling of the MIPE4 collection as inhibitors of Plasmodium falciparum (HB3) proliferation (AID 743347);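 note: plate controls were DMSO vehicle wells for no effect and artemisinin wells for full effect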
Conditions: P. falciparum HB3 in erythrocytes, SYBR Green DNA, 72 h; at 28.5 µM (top of the series) unless noted
Report only the number, with the unit % understood.

What the record says about Cc1ccn(-c2ccc(-c3ncco3)cc2)c(=O)c1-c1ccc2nc(N)ncc2c1 : growth, % of control is 72.3

get_value(item= CCOC(=O)O[C@]1(C(=O)OCCl)CC[C@@H]2[C@H]3CCC4=CC(=O)C=C[C@]4(C)[C@@H]3[C@@H](O)C[C@@]21C , readout=growth, % of control) returns 68.7

Summary for this molecule, O=c1[nH]cnc2c1ncn2[C@H]1CC[C@@H](CO)O1 : growth, % of control is 659

// growth, % of control lookup, molecule = N#Cc1ccc(NC(=O)Nc2ccccc2Br)c2n[nH]nc12 , result: 7.81

# growth, % of control (molecule: CC=CC[C@@H](C)C(=O)[C@H]1C(=O)N[C@@H](C(C)C)C(=O)N(C)CC(=O)N(C)[C@@H](CC(C)C)C(=O)N[C@@H](C(C)C)C(=O)N(C)[C@@H](CC(C)C)C(=O)N[C@@H](C)C(=O)N[C@H](C)C(=O)N(C)[C@@H](CC(C)C)C(=O)N(C)[C@@H](CC(C)C)C(=O)N(C)[C@@H](C(C)C)C(=O)N1C ) is 103

// growth, % of control value for COc1cc2ncnc(-n3nc(-c4ccccn4)nc3N)c2cc1OC : 6.36

Value of measured growth, % of control for the entry C[C@]12CC[C@@H]3c4ccc(O)cc4C[C@@H](CCCCCCCCCS(=O)CCCC(F)(F)C(F)(F)F)[C@H]3[C@H]1CC[C@H]2O (stereo partly drawn) : 3.95

growth, % of control reported for this molecule CON=C(C(=O)N[C@@H]1C(=O)N2C(C(=O)OCOC(=O)C(C)(C)C)=C(C=Cc3scnc3C)CS[C@H]12)c1csc(N)n1 : 84.9

====

Experiment: Cellular Toxicity (caspase-3) Renal Proximal Tubule (AID 667);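 note: cells exposed to compound for 16 hours at 37 °C before detection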;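 for caspase-3 activation: 0% = DMSO basal and 100% = 10 µM staurosporine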
Conditions: renal proximal tubule cells, primary cells freshly taken from rat; caspase-3 activation; series mostly up to 91.7 µM
Calls of active or inactive are those of the source. Calls come from the whole dose curve; as a rule, active = well fitted activation curve with a large enough effect; inconclusive = small, poorly fitted or top-dose-only effect, or effect the other way; inactive = flat fitted curve, though single readings scatter.
Answer with one of the outcomes given here: active, inactive

Hello, I am checking results. What call was entered for CC1=C(/C=C/C(C)=C/C=C/C(C)=C/C(=O)Nc2ccc(O)cc2)C(C)(C)CCC1 ?
active

Hi, sorry to bother you, what did the test record for CCn1cc(C(=O)O)c(=O)c2ccc(C)nc21 ?
inactive

Record lookup: outcome of this test for O=C(O)c1cc(O)c2c(c1)C(=O)c1cccc(O)c1C2=O ?
inactive

// outcome(item) with item = CN(C)CCC(c1ccccc1)c1ccccn1 (configuration not stated)
inactive

Record lookup: outcome of this test for O=c1[nH]cnc2c1ncn2[C@H]1CC[C@@H](CO)O1 ?
inactive

Look up the recorded call for O=c1c(O)c(-c2ccc(O)cc2)oc2cc(O)cc(O)c12 in this test.
inactive

# fetch the recorded call for O=c1c(-c2ccc(O)cc2)coc2cc(O)ccc12 here
inactive

====

Test system: CP192
Experiment: qHTS profiling for inhibitors of Plasmodium falciparum proliferation (AID 504749); note: nearly all actives have a fitted effect of over 60% in size
Conditions: P. falciparum in erythrocytes, SYBR Green DNA, 72 h; series mostly up to 28.7 µM
Results filed as inconclusive are left out. The source made the active and inactive calls. The call rests on the fitted dose curve; in most records, active means well fitted inhibition curve with a large enough effect; inconclusive means small, poorly fitted or top-dose-only effect; inactive means flat fitted curve, though single readings scatter.
Field 'call' accepts active, inactive

Write down the call the test reported for this molecule. Item: O=C1NCC2(CCN(CCc3ccccc3)CC2)O1
inactive

Assay result, entry O=c1[nH]cnc2c1ncn2[C@H]1CC[C@@H](CO)O1 — outcome?
inactive

Which result was noted for this molecule in the test: CC(=O)CCCCn1c(=O)c2c(ncn2C)n(C)c1=O
inactive

Which outcome did this test record for the molecule CC/C(=C(\c1ccccc1)c1ccc(OCCN(C)C)cc1)c1ccccc1 ?
inactive

In this assay, the call recorded for Cc1cccc(C)c1OCC(C)N (stereo not drawn) was what?
inactive

Just curious, what result did O=C1NC(=O)C(c2ccccc2)(c2ccccc2)N1 get here?
inactive

Which result was noted for this molecule in the test: C[N+](C)(C)CCCCCC[N+](C)(C)C
inactive

Would you mind telling me which call this test gave Cc1cnc(C(=O)O)c[n+]1[O-] ?
inactive

Assay outcome for O=C(O)Cc1cccc2ccccc12 : what was it?
inactive

Each molecule tested received a call. Report the one for O=C(O)c1cc(-c2ccccc2)nc2ccccc12 .
inactive

Hi team, can someone confirm the assay call for CCN1CCC[C@H]1CNC(=O)c1cc(S(N)(=O)=O)ccc1OC ?
inactive

State the result this test recorded for CC1=C(/C=C/C(C)=C/C=C/C(C)=C/C(=O)Nc2ccc(O)cc2)C(C)(C)CCC1 .
active

Called result for CCCNC(=O)NS(=O)(=O)c1ccc(Cl)cc1
inactive

====

Assay: Quantitative High-Throughput drug screen in 47 multiple myeloma cell lines against the NCATS MIPE library collection: OPM2_DSMZ cell viability assay (AID 1919872); note: nearly all actives have a fitted effect of over 30% in size; note: potency is the fitted concentration of half-maximal effect
Settings: OPM2 myeloma viability, CellTiter-Glo ATP luminescence, 48 h; series mostly up to 45.8 µM
Inconclusive results are not listed. Calls of active or inactive are those of the source. Calls follow the shape of the dose curve; as a rule, active = well fitted cell-killing curve with a large enough effect; inconclusive = small, poorly fitted or top-dose-only effect, or effect the other way; inactive = no such curve, though single readings can be large or run the other way.
assay endpoint: Potency

Check out these entries, answers already filled in.
| molecule | result |
| --- | --- |
| CC[C@@]1(O)C[C@H](O[C@H]2C[C@H](N(C)C)[C@H](O[C@H]3C[C@H](O)[C@H](O[C@H]4CCC(=O)[C@H](C)O4)[C@H](C)O3)[C@H](C)O2)c2c(cc3c(c2O)C(=O)c2c(O)cccc2C3=O)[C@@H]1C(=O)OC | 4.18 µM (active) |
| Nc1ncnc2c1ncn2[C@@H]1O[C@@H](CO)[C@H](O)[C@H]1O | inactive |
| CC=CC(=O)N(CC)c1ccccc1C | inactive |
| CC(C)(C)OC(=O)N[C@H]1CCCCCC=C[C@@H]2C[C@@]2(C(=O)NS(=O)(=O)C2CC2)NC(=O)[C@@H]2C[C@@H](OC(=O)N3Cc4cccc(F)c4C3)CN2C1=O | inactive |
| COC1CCC(N(C(=O)C2CCC(C)CC2)c2cc(C3=CCCCC3)sc2C(=O)O)CC1 (configuration not stated) | inactive |

molecule OC[C@H]1O[C@@H](Oc2cc(O)cc(C=Cc3ccc(O)cc3)c2)[C@H](O)[C@@H](O)[C@H]1O , Potency observed: inactive

Given item CN1C[C@H]2c3ccccc3Oc3ccc(Cl)cc3[C@@H]2C1 , the value recorded as its Potency is inactive

The reported value for Cc1cc(OCCCc2c(C(=O)O)n(Cc3cccnc3)c3c(-c4c(COc5ccc(N6CCN([S+](C)(=O)[O-])CC6)cc5)nn(C)c4C)cccc23)cc(C)c1Cl in terms of Potency is 10.5 µM (active)

Documented Potency of O=C(O)CCC1CCC(c2cc(F)ccc2F)(S(=O)(=O)c2ccc(Cl)cc2)CC1 (configuration not stated) : inactive

Record summary for C[C@H]1[C@H](NC(=O)C(=NOC(C)(C)C(=O)O)c2csc(N)n2)C(=O)N1S(=O)(=O)O : reported Potency = inactive

// sample C=C1C(=O)[C@@]23C(CC[C@@H]1[C@H]2O)[C@@]12CO[C@]3(O)[C@@H](O)[C@@H]1C(C)(C)CC[C@@H]2O (some centres not stated) , its Potency was 7.43 µM (active)

// field: Potency; key: Cn1c(N2CCCCS2(=O)=O)nc(C(=O)NCc2ccc(F)cc2)c(O)c1=O ; value = inactive

Just so you know, measured Potency for CC[C@@H]1C=C(C)C[C@H](C)C[C@H](OC)[C@H]2O[C@@](O)(C(=O)C(=O)N3CCCC[C@@H]3C(=O)O[C@H](C(C)=C[C@@H]3CC[C@H](Cl)[C@H](OC)C3)[C@H](C)[C@@H](O)CC1=O)[C@H](C)C[C@H]2OC came out at inactive

Data point: CC1(C)O[C@H]2C[C@@H]3[C@H]4CCC5=CC(=O)C=C[C@]5(C)[C@@]4(F)[C@@H](O)C[C@]3(C)[C@]2(C(=O)CO)O1 ; Potency = inactive

Input O=C1NC(=O)C(=Cc2cccc(C(F)(F)F)c2)S1 . Output Potency: inactive

The molecule O=c1c(-c2ccc(O)cc2)coc2cc(O)ccc12 showed Potency equal to inactive

// Potency lookup, molecule = N[C@H](CSC(c1ccccc1)(c1ccccc1)c1ccccc1)C(=O)O , result: 20.9 µM (active)

So, NC(=O)c1cnc(-c2ccc(C3(N)CCC3)cc2)c(-c2ccccc2)c1 ? Its Potency was 20.9 µM (active)

// Potency value for Cc1nnc(C(C)C)n1C1C[C@H]2CC[C@@H](C1)N2CC[C@H](NC(=O)C1CCC(F)(F)CC1)c1ccccc1 (some centres not stated) : inactive

Measured Potency, CN(C)CCC=C1c2ccccc2COc2ccc(CC(=O)O)cc21 : inactive

Kindly note the recorded Potency for Cc1nc(N)sc1-c1ccnc(Nc2ccc(N3CCOCC3)cc2)n1 , which is 11.8 µM (active)

Potency reported for this molecule Clc1ccc(C(c2ccc(Cl)cc2)n2cc[n+](CC(OCc3ccc(Cl)cc3Cl)c3ccc(Cl)cc3Cl)c2)cc1 (configuration not stated) : 18.7 µM (active)

Lab book: Potency of COc1cc(Nc2ncc(F)c(Nc3ccc4c(n3)NC(=O)C(C)(C)O4)n2)cc(OC)c1OC noted as 5.9 µM (active)

The values you see were collected from PubChem BioAssay (NCATS).
